Attribution: patent EP0075095A2

- Test system: Serratia marcescens
- testSummary: Oral antimicrobial activity in vivo in the mouse (curative dose CD50), Serratia marcescens infection
- Set-up: species or system Maus
- experimentalContext: peroral dose at which 50% of tested mice survive, read-out: CD50, p.o.
measurementName: ED50 (mg/kg)
A number alone suffices; assume mg/kg.

Example entries and their recorded answers appear below.
- compound: "CO/N=C(\\C(=O)N[C@@H]1C(=O)N2C(C(=O)OCOC(=O)C(C)(C)C)=C(CSc3nc(C(=O)OC)nn3-c3ccccc3)CS[C@H]12)c1csc(N)n1 [Produkt F]"
  unitsText: "mg/kg"
  ED50: 5.8
- compound: "CCCn1nc(C(=O)OC)nc1SCC1=C(C(=O)OCOC(=O)C(C)(C)C)N2C(=O)[C@@H](NC(=O)/C(=N\\OC)c3csc(N)n3)[C@H]2SC1 [Produkt E]"
  unitsText: "mg/kg"
  ED50: 1.8
- compound: "CCn1nc(C(=O)OC)nc1SCC1=C(C(=O)OCOC(=O)C(C)(C)C)N2C(=O)[C@@H](NC(=O)/C(=N\\OC)c3csc(N)n3)[C@H]2SC1 [Produkt C]"
  unitsText: "mg/kg"
  ED50: 2.54

[Q] What does the data say about its ED50? Entry: CCOC(=O)c1nc(SCC2=C(C(=O)OCOC(=O)C(C)(C)C)N3C(=O)[C@@H](NC(=O)/C(=N\OC)c4csc(N)n4)[C@H]3SC2)n(C)n1 [Produkt B]
[A] 0.8

[Q] What does the data say about its ED50? Entry: CO/N=C(\C(=O)N[C@@H]1C(=O)N2C(C(=O)OCOC(=O)C(C)(C)C)=C(CSc3nc(C(=O)OC)nn3C)CS[C@H]12)c1csc(N)n1 [Produkt A]
[A] 1.5
